The measurements presented in this section are drawn from paper PMC9090415.

testedSystem: P. falciparum apicoplast DNA polymerase (Pf-apPOL) (Plasmodium falciparum)
assayRemarks: Fluorescence-based high-throughput DNA polymerase assay (molecular beacon), primary screen and dose-response
Type: biochemical
conditionContext: DNA Pol (primary screen value); 90 min, 10 µM
endpointName: DNA Pol
Reply briefly: the number, and no unit.

Briefly, DNA Pol measured for Cc1ccc(-n2nnc(C(=O)O)c2-c2ccccn2)c(F)c1 : 25

Briefly, DNA Pol measured for Cc1ccccc1C(=O)N1CCc2c(nc3cc(-c4ccccc4)[nH]n3c2=O)C1 : 47

Briefly, DNA Pol measured for CC(=O)c1cc2c(N)c(/C(N)=N/C#N)sc2nc1C : 33

Briefly, DNA Pol measured for O=c1[nH]c2ccc([N+](=O)[O-])cc2c(-c2ccccc2)c1Sc1nc2ccccc2o1 : 28

Briefly, DNA Pol measured for CC(NC(=O)Cc1cc(=O)[nH]c(SCc2cccc(Cl)c2)n1)c1ccccc1 (centres unmarked) : 46

Briefly, DNA Pol measured for O=C1CCCC2=C1C(c1ccccn1)C1=C(CCCC1=O)O2 : 11

Briefly, DNA Pol measured for COc1ccc(-c2cc3nc4c(c(=O)n3[nH]2)CCN(C(=O)CCc2ccccc2)C4)cc1 : 52

Briefly, DNA Pol measured for COc1cccc(Oc2c(C(F)(F)F)oc3cc(OC(=O)N(C)C)ccc3c2=O)c1 : 61

* * *

testedSystem: UniProt Q8ILY1
assayRemarks: Fluorescence-based high-throughput DNA polymerase assay (molecular beacon), primary screen and dose-response
Format: biochemical
conditionContext: conc. 40; 90'; DRC-2
I'd appreciate it if you could supply % inhibition ApPOL 90' values for the items below.
A number alone suffices; assume %.

Briefly, % inhibition ApPOL 90' measured for O=c1cc(-c2ccccc2Cl)oc2c(NS(=O)(=O)c3cc(Cl)cc(Cl)c3O)ccc(O)c12 : 75

Briefly, % inhibition ApPOL 90' measured for Cc1cc(C)cc(-n2nc3c(c2NC(=O)c2ccco2)CSC3)c1 : 71

Briefly, % inhibition ApPOL 90' measured for O=C1NCCCn2cc(S(=O)(=O)Nc3ccccc3)cc21 : 66

Briefly, % inhibition ApPOL 90' measured for O=C(O)c1cccc(N2N=C(C(F)(F)F)/C(=C/c3ccc(-c4ccccc4[N+](=O)[O-])o3)C2=O)c1 : 77

Briefly, % inhibition ApPOL 90' measured for O=C(CSc1nnc(-c2ccncc2)[nH]1)c1ccc(O)c(O)c1 : 78

Briefly, % inhibition ApPOL 90' measured for Cc1cc(C)c(O)c(/N=C/c2cc([N+](=O)[O-])cc(Br)c2O)c1 : 47

Briefly, % inhibition ApPOL 90' measured for COc1ccc(C)cc1NC(=O)Cn1ccc2c(=O)[nH]ccc21 [Molecule 15, COc1ccc(cc1NC(=O)Cn1ccc2c1cc[nH]c2=O)C] : 66

Briefly, % inhibition ApPOL 90' measured for COCC(=O)Nc1c(-c2cccc(F)c2)nc2cc(C)ccn12 : 73

* * *

I'd appreciate it if you could supply % inhibition Apol 40' values for the items below.
testedSystem: UniProtKB Q8ILY1
assayRemarks: Fluorescence-based high-throughput DNA polymerase assay (molecular beacon), primary screen and dose-response
Assay type: biochemical
conditionContext: DRC-2; 40'; concentration 80
A number alone suffices; assume %.

% inhibition Apol 40' of CC(NC(=O)Cc1cc(=O)[nH]c(SCc2cccc(Cl)c2)n1)c1ccccc1 (stereo not shown) , assay on UniProtKB Q8ILY1, is 55

% inhibition Apol 40' of COC(=O)c1sc(-c2ccc(C(C)(C)C)cc2)cc1NC(=O)CCC(=O)O , assay on UniProtKB Q8ILY1, is 72

% inhibition Apol 40' of O=C1C(=Cc2ccncc2)Oc2c1ccc1c2CN(Cc2ccc3c(c2)OCO3)CO1 , assay on UniProtKB Q8ILY1, is 34

% inhibition Apol 40' of O=C(c1c[nH]c2ncccc12)N1CCCC1 [Molecule 63, O=C(c1c[nH]c2c1cccn2)N1CCCC1] , assay on UniProtKB Q8ILY1, is 58

% inhibition Apol 40' of COCC(=O)Nc1c(-c2cccc(F)c2)nc2cc(C)ccn12 , assay on UniProtKB Q8ILY1, is 69

% inhibition Apol 40' of O=C(O)c1cccc(N2N=C(C(F)(F)F)/C(=C/c3ccc(-c4ccccc4[N+](=O)[O-])o3)C2=O)c1 , assay on UniProtKB Q8ILY1, is 78

% inhibition Apol 40' of O=C(Nc1ccc2c(c1)Cc1cc(NC(=O)c3ccco3)ccc1-2)c1ccco1 , assay on UniProtKB Q8ILY1, is 58

% inhibition Apol 40' of CC(C)(C)c1cc(C(=O)C(C#N)=NNc2cccc(Cl)c2)no1 , assay on UniProtKB Q8ILY1, is 76

% inhibition Apol 40' of Cc1ccc(C)c(CSc2nc(C3CCCCC3)c(C#N)c(=O)[nH]2)c1 , assay on UniProtKB Q8ILY1, is 75

% inhibition Apol 40' of Cc1ccc(C(=O)/C=C/C=C/C=C/N(C)C)o1 , assay on UniProtKB Q8ILY1, is 20

% inhibition Apol 40' of COc1cc(Cl)c(C)cc1NC(=O)Cn1ccc2c(=O)[nH]ccc21 , assay on UniProtKB Q8ILY1, is 57

% inhibition Apol 40' of N#Cc1c(C2CCCCC2)nc(Sc2ccc(C(F)(F)F)cc2[N+](=O)[O-])[nH]c1=O , assay on UniProtKB Q8ILY1, is 78

% inhibition Apol 40' of COc1cccc(C(=O)N2CCc3c(nc4cc(-c5ccccc5)[nH]n4c3=O)C2)c1OC , assay on UniProtKB Q8ILY1, is 66

% inhibition Apol 40' of COc1ccc(NC(=O)Cn2ccc3c(=O)[nH]ccc32)cc1 [Molecule 13, COc1ccc(cc1)NC(=O)Cn1ccc2c1cc[nH]c2=O] , assay on UniProtKB Q8ILY1, is 65

% inhibition Apol 40' of O=[N+]([O-])c1ccc(/C=C/c2ccc3ccccc3n2)o1 , assay on UniProtKB Q8ILY1, is 10

% inhibition Apol 40' of CN(C)C1C(c2ccccc2)=C(c2ccccc2)SC(c2ccccc2)C1[N+](=O)[O-] (stereo not shown) , assay on UniProtKB Q8ILY1, is 68

* * *

I'd appreciate it if you could supply % inhibition Apol 40' values for the items below.
testedSystem: P. falciparum apicoplast DNA polymerase (Pf-apPOL) (Plasmodium falciparum, UniProt Q8ILY1)
Sequence (Q8ILY1 entry or part of it): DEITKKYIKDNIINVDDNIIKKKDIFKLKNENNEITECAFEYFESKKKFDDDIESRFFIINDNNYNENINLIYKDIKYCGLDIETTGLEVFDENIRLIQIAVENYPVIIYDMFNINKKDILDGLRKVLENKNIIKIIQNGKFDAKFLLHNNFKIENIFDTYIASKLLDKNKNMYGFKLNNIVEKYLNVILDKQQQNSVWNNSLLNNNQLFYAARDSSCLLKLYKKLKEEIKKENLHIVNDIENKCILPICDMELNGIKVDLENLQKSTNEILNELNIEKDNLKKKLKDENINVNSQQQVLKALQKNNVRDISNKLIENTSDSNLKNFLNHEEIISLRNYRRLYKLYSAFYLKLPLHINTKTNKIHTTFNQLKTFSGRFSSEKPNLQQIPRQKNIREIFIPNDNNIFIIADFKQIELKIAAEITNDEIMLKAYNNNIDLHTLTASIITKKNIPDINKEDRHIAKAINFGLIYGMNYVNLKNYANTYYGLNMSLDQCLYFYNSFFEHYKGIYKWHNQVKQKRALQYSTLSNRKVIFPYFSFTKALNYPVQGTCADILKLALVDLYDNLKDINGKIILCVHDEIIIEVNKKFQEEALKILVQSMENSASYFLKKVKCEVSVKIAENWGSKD
assayRemarks: Fluorescence-based high-throughput DNA polymerase assay (molecular beacon), primary screen and dose-response;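 as to % inhibition Apol 40': compound concentration given in µM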
Type: biochemical
conditionContext: DRC-2; concentration 10; 40'

Briefly, % inhibition Apol 40' measured for Nc1ncnc(NC2CCCCC2)c1[N+](=O)[O-] : 19%

Briefly, % inhibition Apol 40' measured for CCCCCc1c2c(cc(O)c1C(=O)O)OC(=O)c1c(cc(OC)cc1C(=O)CCCC)O2 : 51%

Briefly, % inhibition Apol 40' measured for Cc1cc(C)nc(Nc2nc(CC(=O)Nc3nc(-c4ccco4)cs3)cs2)n1 : 41%

Briefly, % inhibition Apol 40' measured for O=C(Nc1c2c(nn1-c1ccccc1)CSC2)c1ccco1 : 42%

Briefly, % inhibition Apol 40' measured for COc1cc(/C=C2\C(=O)N(c3ccc(C(=O)O)cc3)N=C2C(F)(F)F)ccc1OCC(C)C : 28%

Briefly, % inhibition Apol 40' measured for Oc1cccnc1/N=C/c1cc(I)cc(I)c1O : 52%

Briefly, % inhibition Apol 40' measured for Cc1ccnc(NS(=O)(=O)c2ccc(-n3cccc3)cc2)n1 : 42%

Briefly, % inhibition Apol 40' measured for O=C(O)c1nc(-c2ccccc2)nc2c1OCO2 : 34%

Briefly, % inhibition Apol 40' measured for COc1ccc(C=C2Oc3c(ccc4c3CN(Cc3ccco3)CO4)C2=O)c(OC)c1 : 33%

* * *

testedSystem: P. falciparum apicoplast DNA polymerase (Pf-apPOL) (Plasmodium falciparum, UniProt Q8ILY1)
assayRemarks: Fluorescence-based high-throughput DNA polymerase assay (molecular beacon), primary screen and dose-response;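 as to % inhibition ApPOL 90': test concentration in µM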
Assay type: biochemical
conditionContext: DRC-2; 90'; concentration 20
Classify by % inhibition ApPOL 90'. Ranges: group A (below 40%), group B (40% to below 60%), group C (60% or more)

Request: Exam item: assign CCOC(=O)C1=C2c3cc(OC)c(OC)cc3CC(C)(C)N2C(=O)C1=O to the correct category.
Response: group B

Request: Exam item: assign O=C(c1c[nH]c2ncccc12)N1CCCC1 [Molecule 63, O=C(c1c[nH]c2c1cccn2)N1CCCC1] to the correct category.
Response: group B

Request: Exam item: assign CSC1=C(C#N)C(=C(C#N)C#N)NC(c2ccccc2)=N1 [Molecule 2, CSc1nc([nH]c(=C(C#N)C#N)c1C#N)c1ccccc1] to the correct category.
Response: group C

Request: Exam item: assign N#Cc1c(C2CCCCC2)nc(Sc2ccc(C(F)(F)F)cc2[N+](=O)[O-])[nH]c1=O to the correct category.
Response: group C

Request: Exam item: assign Cc1ccc(C)c(CSc2nc(C3CCCCC3)c(C#N)c(=O)[nH]2)c1 to the correct category.
Response: group C

Request: Exam item: assign C#CC(C=CC)OC(=O)c1ccccc1C(=O)O (stereo not shown) to the correct category.
Response: group B

Request: Exam item: assign Cc1ccc(NC(=O)Cn2ccc3c(=O)[nH]ccc32)c(C)c1 to the correct category.
Response: group B

Request: Exam item: assign Cc1ccc(N2NC(=O)/C(=C\c3ccc(O)c([N+](=O)[O-])c3)C2=O)cc1Cl to the correct category.
Response: group B

Request: Exam item: assign CC(=O)c1cc2c(N)c(/C(N)=N/C#N)sc2nc1C to the correct category.
Response: group A

Request: Exam item: assign O=C1C(=Cc2ccccc2O)Oc2ccc(O)cc21 to the correct category.
Response: group A

Request: Exam item: assign COc1ccc(/C=C/c2cc(C(=O)O)c3ccccc3n2)cc1 to the correct category.
Response: group B

Request: Exam item: assign COCC(=O)Nc1c(-c2cccc(F)c2)nc2cc(C)ccn12 to the correct category.
Response: group B

Request: Exam item: assign CCCCOC(=O)CCCCCN1C(=O)C(=Cc2ccc(OC)cc2)SC1=S to the correct category.
Response: group B

Request: Exam item: assign COc1ccc(-c2c(C(F)(F)F)nn3c(=O)cc(-c4cccc([N+](=O)[O-])c4)[nH]c23)cc1 to the correct category.
Response: group C

Request: Exam item: assign O=C(NCC1CCN(C2CCCC2)CC1)C(=O)NC1CCCC1 to the correct category.
Response: group A
